growth by entry:
tested on: K-562 leukemia; experiment: NCI-60 one-dose screen, 48 h (100 = growth as untreated, 0 = no growth, -100 = all killed); conditions: 10 µM
The panel holds about 83,000 compounds, 20% with a hit somewhere; the sample as a whole holds those more often.
Reply numerically in %, unit not repeated.

Some solved entries appear below for comparison.
[
  {
    "MOLECULE": "COC(=O)c1cnc2c(c1)Oc1ccccc1-c1ccnn1-2",
    "TEST_SYSTEM": "K-562 leukemia",
    "growth / %": 90.7
  },
  {
    "MOLECULE": "COc1ccc(/C=C2\\SC(=S)N(CCCN3CCOCC3)C2=O)c(OC)c1",
    "TEST_SYSTEM": "K-562 leukemia",
    "growth / %": 83.8
  }
]

Switching to the query record.
stdin: Need growth, item COc1cc(-c2cc(-c3cc(OC)c(OC)c(OC)c3)nc3nc(N)[nH]c(=O)c23)ccc1Oc1ccnc2cc(Cl)ccc12
stdout: 10.6

----------
system: SK-MEL-5 melanoma; assay: NCI-60 one-dose screen, 48 h (100 = growth as untreated, 0 = no growth, -100 = all killed); details: 10 µM
The panel holds about 83,000 compounds, 20% with a hit somewhere; the sample as a whole holds those more often.
READOUT_NAME: growth (%)
Your answer should be a plain number; it is taken to be in %.

Answered cases to consult:
[
  {
    "MOLECULE": "O=C(O)c1ccccc1C(=O)c1cccc2c(F)cccc12",
    "ENDPOINT_RESULT": 108
  },
  {
    "MOLECULE": "COc1ccccc1S(=O)(=O)Nc1ccc2c(c1)CN(C)C(=O)N2",
    "ENDPOINT_RESULT": 40.5
  },
  {
    "MOLECULE": "O=C1/C(=C/c2ccc(O)cc2)CSc2ccc(Cl)cc21",
    "ENDPOINT_RESULT": 80.9
  },
  {
    "MOLECULE": "COc1cc2c3c(cccc3c1)C(=O)N(CCN1CCCC1)C2=O",
    "ENDPOINT_RESULT": -33.3
  },
  {
    "MOLECULE": "O=C(N/N=c1/ccoc2cccnc12)N1CCN(c2ncccn2)CC1",
    "ENDPOINT_RESULT": -36.8
  },
  {
    "MOLECULE": "Cc1cc(C#Cc2ccccc2)ccc1-n1c(/C=C/c2cc(O)ccc2O)nc2ccccc2c1=O",
    "ENDPOINT_RESULT": -84.5
  }
]

stdin: What value of growth has been recorded for this entry: O=C(Nc1cccc(-c2nc3ccccc3[nH]2)c1)c1cccc(NC(=O)c2ccco2)c1
stdout: 43.4

stdin: Item under review: O/N=C1\CCC2CCCCC2C1 (stereo unspecified) . Reported growth?
stdout: 102

stdin: Given COc1ccc(NC(=O)CCn2cnc3c(cc(-c4ccccc4)n3-c3ccccc3)c2=O)cc1 , state its recorded growth.
stdout: 91

stdin: What value of growth has been recorded for this entry: Nc1c(C(=O)NC2CCCCC2)sc2nc3c(cc12)C(=O)CCC3
stdout: 95

stdin: Fill blank: measured growth of the molecule C/C=C\COc1cc(C)c(Cl)cc1Cl is ____.
stdout: 99.6

----------
Test system: SK-MEL-2 melanoma
Assay: NCI-60 one-dose screen, 48 h (100 = growth as untreated, 0 = no growth, -100 = all killed)
Settings: 10 µM
Method: Growth inhibition of the SK-MEL-2 human tumor cell line is measured as a screen for anti-cancer activity. Cells are grown in 96 well plates and exposed to the test compound for 48 hours. Compounds are tested at a single concentration, which is 10^-5 M for most compounds. The reported endpoint is percent growth (GI% or GIPRCNT), where numbers from 0 - 100% represent growth inhibition, and numbers from -100% - 0 represent cell death. For example, a value of 40 represents 60% growth inhibition. […]
This is part of a sample that, as a whole, favours compounds with a hit. Of some 83,000 tested, about 20% had one in any assay.
READOUT_NAME: growth (%)
Give just the number in %; leave the unit off.

Sample records with growth:
[
  {
    "COMPOUND": "O=C(CCc1ccccc1)N1CCN(C(=O)CCc2ccccc2)CC1",
    "UNIT_TEXT": "%",
    "ENDPOINT_RESULT": 104
  },
  {
    "COMPOUND": "COc1cccc(C(=O)NNc2nc(N3CCOCC3)nc(N3CCN(C(c4ccccc4)c4ccccc4)CC3)n2)c1",
    "UNIT_TEXT": "%",
    "ENDPOINT_RESULT": 85.3
  },
  {
    "COMPOUND": "Clc1ccc(-c2nc(-c3cccs3)cn3ccnc23)cc1",
    "UNIT_TEXT": "%",
    "ENDPOINT_RESULT": 70.6
  },
  {
    "COMPOUND": "CC(CNC(Cc1ccccc1)c1ccccc1)NC(Cc1ccccc1)c1ccccc1 (stereo not given)",
    "UNIT_TEXT": "%",
    "ENDPOINT_RESULT": 73.3
  }
]

stdin: Which growth value belongs to O=c1[nH]c(=O)n(C2C[C@@H](O)[C@@H](CO)O2)cc1F (stereo not given in full) ?
stdout: 57.3
